Entries below carry reported Ki on human ATIC (AICARFTase) (Homo sapiens, UniProt P31939).
Sequence (P31939 whole entry): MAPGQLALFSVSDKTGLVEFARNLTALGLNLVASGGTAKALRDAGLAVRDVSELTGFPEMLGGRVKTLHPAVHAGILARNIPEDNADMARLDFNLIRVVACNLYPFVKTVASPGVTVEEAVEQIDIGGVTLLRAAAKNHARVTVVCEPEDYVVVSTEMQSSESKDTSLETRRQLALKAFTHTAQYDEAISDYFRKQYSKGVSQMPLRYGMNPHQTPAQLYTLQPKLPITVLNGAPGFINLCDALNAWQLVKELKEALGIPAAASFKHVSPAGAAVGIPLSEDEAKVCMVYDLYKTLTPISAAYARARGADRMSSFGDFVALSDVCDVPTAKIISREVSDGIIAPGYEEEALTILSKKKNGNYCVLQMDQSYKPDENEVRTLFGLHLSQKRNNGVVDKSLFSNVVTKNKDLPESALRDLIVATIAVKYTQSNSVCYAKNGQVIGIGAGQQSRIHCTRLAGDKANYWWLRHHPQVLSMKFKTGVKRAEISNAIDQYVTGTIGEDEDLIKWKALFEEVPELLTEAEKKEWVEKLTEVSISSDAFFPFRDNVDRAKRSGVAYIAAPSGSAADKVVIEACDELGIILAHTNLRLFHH

So what Ki did Nc1nc2sc(CCCCc3ccc(C(=O)N[C@@H](CCC(=O)O)C(=O)O)nc3)cc2c(=O)[nH]1 get with human ATIC (AICARFTase) (Homo sapiens, UniProt P31939)? 12.1 µM

----------
Below, each entry is listed alongside its reported IC50.
System: RT16 CHO cells (expresses only human FRα)
Experiment: Cell proliferation assay, RT16 CHO subline
Type: cell-based, Chinese hamster
Settings: Homo sapiens, RT16; 96 h, 2 nM leucovorin; mean (standard error)
# unit: nM | format: bare number

* Nc1nc2sc(CCCCc3ccc(C(=O)N[C@@H](CCC(=O)O)C(=O)O)nc3)cc2c(=O)[nH]1 [Compound 4] | 0.94

Which IC50 value is on record for Nc1nc2sc(CCCCc3csc(C(=O)N[C@@H](CCC(=O)O)C(=O)O)c3F)cc2c(=O)[nH]1 [Compound 9] ? 1.29

----------
Test system: KB tumor cells
Experiment: Metabolite rescue of growth inhibition in KB cells
Assay type: cell-based, human
Settings: glycine- and nucleoside-free media, inhibitor up to 1000 nM, 60 μM adenosine alone
parameterMeasured: Protection from growth inhibition by adenosine

* Nc1nc2sc(CCCCc3ccc(C(=O)N[C@@H](CCC(=O)O)C(=O)O)c(F)c3)cc2c(=O)[nH]1 | substantially protective
* Nc1nc2sc(CCCCc3ccc(C(=O)N[C@@H](CCC(=O)O)C(=O)O)nc3)cc2c(=O)[nH]1 | substantially protective
* Nc1nc2sc(CCCc3csc(C(=O)N[C@@H](CCC(=O)O)C(=O)O)c3)cc2c(=O)[nH]1 | completely protective
* Nc1nc2sc(CCCCc3cnc(C(=O)N[C@@H](CCC(=O)O)C(=O)O)c(F)c3)cc2c(=O)[nH]1 | completely protective

Which Protection from growth inhibition by adenosine value is on record for Nc1nc2sc(CCCc3csc(C(=O)N[C@@H](CCC(=O)O)C(=O)O)c3F)cc2c(=O)[nH]1 ? completely protective

Which Protection from growth inhibition by adenosine value is on record for Nc1nc2sc(CCCCc3csc(C(=O)N[C@@H](CCC(=O)O)C(=O)O)c3)cc2c(=O)[nH]1 ? completely protective

Which Protection from growth inhibition by adenosine value is on record for Nc1nc2sc(CCCCc3csc(C(=O)N[C@@H](CCC(=O)O)C(=O)O)c3F)cc2c(=O)[nH]1 ? substantially protective

----------
Below, each entry is listed alongside its reported melting point.

* Nc1nc2sc(CCCCc3csc(C(=O)N[C@@H](CCC(=O)O)C(=O)O)c3F)cc2c(=O)[nH]1 | 142.3 to 143.5 °C
* Nc1nc2sc(CCCc3ccc(C(=O)N[C@@H](CCC(=O)O)C(=O)O)c(F)c3)cc2c(=O)[nH]1 | 128 to 129.8 °C
* Nc1nc2sc(CCCCc3cccc(C(=O)N[C@@H](CCC(=O)O)C(=O)O)n3)cc2c(=O)[nH]1 | 125.8 to 126.2 °C
* Nc1nc2sc(CCCCc3cnc(C(=O)N[C@@H](CCC(=O)O)C(=O)O)c(F)c3)cc2c(=O)[nH]1 | 128 to 129.7 °C

With those in mind, consider the next compound.
Which melting point value is on record for Nc1nc2sc(CCCCc3ccc(C(=O)N[C@@H](CCC(=O)O)C(=O)O)c(F)c3)cc2c(=O)[nH]1 ? 121.7 to 122.6 °C

----------
Target: SHMT2 (Homo sapiens)
Construct: N-terminal His6-tagged SHMT2 (residues 30–504)
Sequence (P34897 30-504): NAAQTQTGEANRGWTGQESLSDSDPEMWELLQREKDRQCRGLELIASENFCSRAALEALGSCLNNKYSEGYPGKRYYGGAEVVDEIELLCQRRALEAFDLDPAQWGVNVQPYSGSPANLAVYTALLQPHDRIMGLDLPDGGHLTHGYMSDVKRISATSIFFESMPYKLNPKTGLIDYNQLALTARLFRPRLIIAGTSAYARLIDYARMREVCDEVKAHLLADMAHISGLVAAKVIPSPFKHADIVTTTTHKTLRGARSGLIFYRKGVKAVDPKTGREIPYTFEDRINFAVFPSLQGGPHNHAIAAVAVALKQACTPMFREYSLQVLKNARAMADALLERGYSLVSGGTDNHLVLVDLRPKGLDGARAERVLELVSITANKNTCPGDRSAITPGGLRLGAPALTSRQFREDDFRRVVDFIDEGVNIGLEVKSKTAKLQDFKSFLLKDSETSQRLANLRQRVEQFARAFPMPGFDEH
Experiment: SHMT2 coupled enzyme assay with MTHFD2 (NADH production)
Settings: mean (standard error), at least three replicate assays
Below, each entry is listed alongside its reported Ki.
# unit: µM | format: bare number

Worked set:
* Nc1nc2sc(CCCc3ccc(C(=O)N[C@@H](CCC(=O)O)C(=O)O)c(F)c3)cc2c(=O)[nH]1 [Compound 6] | 27.6
* Nc1nc2sc(CCCc3ccc(C(=O)N[C@@H](CCC(=O)O)C(=O)O)cc3)cc2c(=O)[nH]1 [Compound 1] | 67.3

With those in mind, consider the next molecule.
Which Ki value is on record for Nc1nc2sc(CCCCc3ccc(C(=O)N[C@@H](CCC(=O)O)C(=O)O)cc3)cc2c(=O)[nH]1 [Compound 2] ? 12.4

----------
Biological target: human GARFTase (Homo sapiens, UniProt P22102)
Construct: GARFTase (formyltransferase domain; residues 808–1010); made in house; host or cells: E. coli Rosetta (DE3)pLysS
Sequence (P22102 808-1010): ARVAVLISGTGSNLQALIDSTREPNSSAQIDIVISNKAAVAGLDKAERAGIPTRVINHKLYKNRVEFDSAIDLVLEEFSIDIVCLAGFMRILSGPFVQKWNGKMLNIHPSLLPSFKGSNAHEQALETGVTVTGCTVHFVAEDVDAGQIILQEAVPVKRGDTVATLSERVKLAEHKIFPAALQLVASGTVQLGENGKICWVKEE
Experiment: In vitro GARFTase enzyme assay (THF formation from 10-CHOTHF)
Type: biochemical
Settings: monoglutamyl antifolates; mean (standard error), at least three replicate assays; tested up to 150 μM; read-out: GARFTase Ki
Below, each entry is listed alongside its reported pKi.
Lab note — pKi values are minus log10 of concentrations in M.

Worked set:
- Nc1nc2sc(CCCc3csc(C(=O)N[C@@H](CCC(=O)O)C(=O)O)c3F)cc2c(=O)[nH]1 [Compound 8]: 5.51
- Nc1nc2sc(CCCCc3cccc(C(=O)N[C@@H](CCC(=O)O)C(=O)O)n3)cc2c(=O)[nH]1 [Compound 3]: 4.57

With those in mind, consider the next compound.
Which pKi value is on record for Nc1nc2sc(CCCCc3cnc(C(=O)N[C@@H](CCC(=O)O)C(=O)O)c(F)c3)cc2c(=O)[nH]1 [Compound 5] ? 4.86

----------
Target: human ATIC (AICARFTase) (Homo sapiens)
parameterMeasured: Ki (µM)
# unit: µM | format: bare number

Worked set:
• Nc1nc2sc(CCCc3ccc(C(=O)N[C@@H](CCC(=O)O)C(=O)O)c(F)c3)cc2c(=O)[nH]1 = 7.3
• Nc1nc2sc(CCCCc3ccc(C(=O)N[C@@H](CCC(=O)O)C(=O)O)c(F)c3)cc2c(=O)[nH]1 = 19.4

With those in mind, consider the next molecule.
So what Ki did Nc1nc2sc(CCCCc3csc(C(=O)N[C@@H](CCC(=O)O)C(=O)O)c3F)cc2c(=O)[nH]1 get with human ATIC (AICARFTase) (Homo sapiens)? 23.7
